target: Cathepsin D (Cat D) (Homo sapiens); assay: In vitro enzymatic Cathepsin D (Cat D) FRET assay; type: biochemical; conditions: text summary referring to data in Table 2
Sequence (P07339 65-412, species assumed): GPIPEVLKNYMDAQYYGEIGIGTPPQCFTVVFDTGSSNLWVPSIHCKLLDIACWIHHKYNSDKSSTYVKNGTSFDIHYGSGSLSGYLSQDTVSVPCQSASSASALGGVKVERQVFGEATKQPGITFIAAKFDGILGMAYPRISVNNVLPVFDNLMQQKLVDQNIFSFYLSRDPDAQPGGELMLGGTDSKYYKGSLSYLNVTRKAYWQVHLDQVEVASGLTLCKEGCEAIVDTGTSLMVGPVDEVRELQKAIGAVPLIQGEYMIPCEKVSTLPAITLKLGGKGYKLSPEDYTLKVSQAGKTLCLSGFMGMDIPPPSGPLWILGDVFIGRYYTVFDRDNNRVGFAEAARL
Entries and their IC50 values follow.

SMILES STR | IC50
C[C@]12N=C(N)C3(CCC3)S(=O)(=O)[C@@H]1CCOc1ncc(NC(=O)c3ccc(C#N)cn3)cc12 | > 800 µM
COc1cnc(C(=O)Nc2ccc3c(c2)[C@@]2(C)N=C(N)C(C)(C)S(=O)(=O)[C@H]2CCC3)c(C)c1 | > 1200 µM
C[C@H]1C[C@@H]2[C@](C)(N=C(N)C(C)(C)S2(=O)=O)c2cc(NC(=O)c3cnc(OCc4ncco4)cn3)ccc2O1 | > 1200 µM
COc1cnc(C(=O)Nc2ccc3c(c2)[C@@]2(C)N=C(N)C(C)(C)S(=O)(=O)[C@]2(F)CCO3)cn1 | > 1200 µM
